- Test Details: NCI Yeast Anticancer Drug Screen. Data for the rad14 strain (AID 159);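 also: 0% = growth of vehicle-treated control cultures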
- Condition Set: S. cerevisiae rad14 strain growth inhibition; at 1.2 µM; hits give high values
The panel holds about 79,000 compounds, 15% with a hit somewhere; the sample as a whole holds those more often.
Reported Property: growth inhibition (%)
Report the figure in % without appending any unit label.

Observe how each entry below is paired with its result.
CSC(=S)Nc1cc(C)ccn1 = -26
O=C1CSc2cc([N+](=O)[O-])ccc2N1 = -16
O=C(Nc1ccccc1)OCCc1ccc(Cl)c(Cl)c1 = -5

Data request: For O=C(CCCN1CCC2(CC1)CC(=O)N(N1CCCCCC1)C2=O)c1ccc(F)cc1 , what is its reported growth inhibition?
Data returned: 45

Data request: For c1ccc2c(c1)NC(NC1Nc3ccccc3N1)N2 , what is its reported growth inhibition?
Data returned: -4

Data request: For COC(=O)c1cc(-c2ccc(C)cc2)[nH]c(=O)c1C#N , what is its reported growth inhibition?
Data returned: 1

These data points were gathered from PubChem BioAssay (NCI).
